- System: rabbit ear acne model
- method: Rabbit ear acne model induced by 2% coal tar
- Format: in vivo, New Zealand rabbits
- condition_details: right ear, n = 10; grade 1: small amount of dense keratinized material, infundibulum not expanded
- Excerpt: The inner side of the right ear of the rabbits was taken as the observation area, the left ear of all rabbits was used as the self-negative control, and 95% alcohol was applied. […]
test_readout: Histological grading of acne: number of animals graded 1+
Enter the number alone.

[
  {
    "compound": "O=C(c1ccc(-n2nnc3cccnc32)cc1)N(c1ncccc1Cl)[C@@H]1CCCNC1",
    "observed": 2
  },
  {
    "compound": "COc1ccc(CCC(=O)N(c2nccc3ccccc23)[C@@H]2CCCNC2)cc1",
    "observed": 3
  },
  {
    "compound": "Cc1cc(C(=O)C2=C(O)C(=O)N(CCCN3CCOCC3)C2c2ccncc2)ccc1OCc1ccccc1 (stereo not shown)",
    "observed": 3
  }
]

Field: next compound
[Q] Fetch value of Histological grading of acne: number of animals graded 1+ on rabbit ear acne model for CC(=O)Nc1ccc(C(=O)N2CCN(c3ccc(C)cc3)CC2c2ccccc2)cc1 (stereo not shown) .
[A] 2

====

- Tested on: rabbit ear acne model
- method: Rabbit ear acne model induced by 2% coal tar
- Type: in vivo, New Zealand rabbits
- condition_details: rabbit ear, n = 10
Marks after values point to notes of the source that are not given here.
test_readout: Hair follicle area

Use these answered entries as a reference point.
[
  {
    "molecule": "Cc1cc(C(=O)C2=C(O)C(=O)N(CCCN3CCOCC3)C2c2ccncc2)ccc1OCc1ccccc1 (stereo not shown)",
    "observed": "0.2836 ± 0.0851* mm^2"
  },
  {
    "molecule": "O=C(c1ccc(-n2nnc3cccnc32)cc1)N(c1ncccc1Cl)[C@@H]1CCCNC1",
    "observed": "0.2353 ± 0.0812* mm^2"
  },
  {
    "molecule": "COc1ccc(CCC(=O)N(c2nccc3ccccc23)[C@@H]2CCCNC2)cc1",
    "observed": "0.2726 ± 0.0842* mm^2"
  }
]

[Q] Determine from records and report Hair follicle area for CC(=O)Nc1ccc(C(=O)N2CCN(c3ccc(C)cc3)CC2c2ccccc2)cc1 (stereo not shown)
[A] 0.2853 ± 0.0879* mm^2

====

- System: hair follicles / hair growth in depilated C57BL/6 mice
- method: Hair growth in C57BL/6 mice after rosin/paraffin depilation
- Format: in vivo
- condition_details: back hair removal area of mice
- Procedure: SPF grade C57BL/6 mice were selected and numbered according to their weight. […] From the second day after application, observe the daily color change of the skin on the back of the mice to determine the growth state of the hair follicles and visually observe the hair growth in the depilation area, and score the new hair growth in the depilation area once a day. Five mice in each group were reserved for 40 days of visual observation, and the growth of back hair was recorded. […]
Marks after values point to notes of the source that are not given here.
test_readout: Time to match the length of hair in the non-experimental area

Use these answered entries as a reference point.
[
  {
    "molecule": "O=C(c1ccc(-n2nnc3cccnc32)cc1)N(c1ncccc1Cl)[C@@H]1CCCNC1 [Compound group 2, PF 06446846]",
    "observed": "17.69* days"
  },
  {
    "molecule": "Nc1cc(N2CCCCC2)nc(N)[n+]1[O-] [Positive control group, minoxidil]",
    "observed": "23.62 days"
  },
  {
    "molecule": "COc1ccc(CCC(=O)N(c2nccc3ccccc23)[C@@H]2CCCNC2)cc1 [Compound group 1, R-IMPP]",
    "observed": "18.06* days"
  },
  {
    "molecule": "CC(=O)Nc1ccc(C(=O)N2CCN(c3ccc(C)cc3)CC2c2ccccc2)cc1 (centres unmarked) [Compound group 4, SBC-110736]",
    "observed": "18.46* days"
  }
]

Field: next molecule
[Q] Determine from records and report Time to match the length of hair in the non-experimental area for Cc1cc(C(=O)C2=C(O)C(=O)N(CCCN3CCOCC3)C2c2ccncc2)ccc1OCc1ccccc1 (centres unmarked) [Compound group 3, SBC-115076]
[A] 19.35* days
